system: 186277-243-T-J2-PDC multi-cell spheroid viability; test: Anticancer human tumor 186277-243-T-J2-PDC patient-derived colon adenocarcinoma cell line growth inhibition [PI3K]; details: second compound 0.1 µM; first compound 1 µM; active compounds read low;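 also: spheroids exposed to compounds for seven days before viability reading; 100% = DMSO vehicle control viability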
ENDPOINT: viability, T/C

CC1(C)CCC(CN2CCN(c3ccc(C(=O)NS(=O)(=O)c4ccc(NCC5CCOCC5)c([N+](=O)[O-])c4)c(Oc4cnc5[nH]ccc5c4)c3)CC2)=C(c2ccc(Cl)cc2)C1 + Cc1nc(NC(=O)N2CCCC2C(N)=O)sc1-c1ccnc(C(C)(C)C(F)(F)F)c1 ... 101%

Exercise: Give the value of viability, T/C reported for the following: C=CC(=O)N1CCN(c2nc(=O)n(-c3c(C)ccnc3C(C)C)c3nc(-c4c(O)cccc4F)c(F)cc23)C(C)C1 (configuration not stated) + CC(Nc1ncnc2nc[nH]c12)c1cc2cccc(Cl)c2c(=O)n1-c1ccccc1
Key: 93.7%

Each recorded value in this set is attributed to PubChem BioAssay AID1963983.
